Data origin, for the record: patent US20250011363A1

biological target: acetylcholine receptor; assay: SPR, AchR immobilised, peptide 10 uM
Readout Name: Binding affinity (RU)

A selection of reference data follows.
Binder: RRTTIR [6mer-1-645]
Binding affinity (RU): 33 RU

Binder: KKDPWK [6mer-1-1112]
Binding affinity (RU): 27 RU

Binder: RRKTAK [6mer-1-620]
Binding affinity (RU): 11 RU

Binder: RRENEK [6mer-1-628]
Binding affinity (RU): 23 RU

Binder: KKNCHK [6mer-1-611]
Binding affinity (RU): 23 RU

Quick one: give me Binding affinity (RU) for each item below, same order please.
1. KREDNK [6mer-1-1103]
2. KKTCDR [6mer-1-1082]
3. RRMAIK [6mer-1-1094]
4. KKEWFR [6mer-1-1117]
5. RREMFK [6mer-1-641]
6. KRPHFK [6mer-1-603]

Result block:
["27 RU", "37 RU", "42 RU", "40 RU", "21 RU", "13 RU"]

For every listed record, write down its Binding affinity (RU).
1. RRTDWR [6mer-1-623]
2. KRFTKK [6mer-1-1102]

Result block:
1: 21 RU; 2: 35 RU

Lab note: each binder below needs its Binding affinity (RU) filled in.
1. KKEWNK [6mer-1-601]
2. RRHCDK [6mer-1-1126]

Result block:
["27 RU", "41 RU"]

Working through the 2 binders below one at a time, give Binding affinity (RU) for each.
1. KKEEER [6mer-1-614]
2. RKEDVK [6mer-1-1066]

Result block:
1. 12 RU
2. 23 RU
